# Test system: morningglory (Ipomoea coccinea)
# assay_details: Test C pre-/postemergence greenhouse test
# Assay type: in vivo
# experimental_parameters: Preemergence, 61 g ai/ha; scale 0 to 100
We begin with a simple list: items and their reported Plant response rating, Morningglory.
Please give only the number in your answer, with no unit.

Prompt: State, in one line, measured Plant response rating, Morningglory of Cc1ccc2ccc(Cl)cc2c1-c1c(O)c(Cl)nn(C)c1=O
Response: 25

----------
We begin with a simple list: items and their reported Plant response rating, Corn.
# Test system: corn (Zea mays)
# assay_details: Test C pre-/postemergence greenhouse test
# Assay type: in vivo
# experimental_parameters: Postemergence, 125 g ai/ha; scale 0 to 100
Please give only the number in your answer, with no unit.

Known results for compounds:
>>> df
                                     smiles                     quantity  test_result
0  Cc1ccc2ccc(C)c(-c3c(O)c(Cl)nn(C)c3=O)c2c1  Plant response rating, Corn           20
1   Cc1ccc2ccc(F)cc2c1-c1c(O)c(Cl)nn(C)c1=O  Plant response rating, Corn           18

Prompt: State, in one line, measured Plant response rating, Corn of Cc1ccc2ccc(Cl)cc2c1-c1c(O)c(Cl)nn(C)c1=O
Response: 25

Prompt: State, in one line, measured Plant response rating, Corn of Cc1cc(Cl)c2ccccc2c1-c1c(O)c(Cl)nn(C)c1=O
Response: 75

----------
# Test system: corn (Zea mays)
# assay_details: Test C pre-/postemergence greenhouse test
# Assay type: in vivo
# experimental_parameters: Preemergence, 125 g ai/ha; scale 0 to 100
quantity: Plant response rating, Corn
Please give only the number in your answer, with no unit.

Known results for molecules:
>>> df
                                   molecule  test_result
0  Cc1ccc2ccc(Cl)cc2c1-c1c(O)c(Cl)nn(C)c1=O [Cpd. No. 22]           30
1  Cc1cc(Cl)c2ccccc2c1-c1c(O)c(Cl)nn(C)c1=O [Cpd. No. 65]           15
2  Cc1ccc2ccc(F)cc2c1-c1c(O)c(Cl)nn(C)c1=O [Cpd. No. 21]           20

// below: Plant response rating, Corn requested for another molecule
Prompt: State, in one line, measured Plant response rating, Corn of Cc1ccc2ccc(C)c(-c3c(O)c(Cl)nn(C)c3=O)c2c1 [Cpd. No. 20]
Response: 35

----------
# Tested on: nutsedge, yellow (Cyperus esculentus)
# assay_details: Test C pre-/postemergence greenhouse test
# Type: in vivo
# experimental_parameters: Preemergence, 62 g ai/ha; scale 0 to 100
We begin with a simple list: items and their reported Plant response rating, Nutsedge, Yellow.
Please give only the number in your answer, with no unit.

                                     smiles  test_result
0  Cc1cc(Cl)c2ccccc2c1-c1c(O)c(Cl)nn(C)c1=O           75

Prompt: State, in one line, measured Plant response rating, Nutsedge, Yellow of Cc1ccc2ccc(C)c(-c3c(O)c(Cl)nn(C)c3=O)c2c1
Response: 95

Prompt: State, in one line, measured Plant response rating, Nutsedge, Yellow of Cc1ccc2ccc(Cl)cc2c1-c1c(O)c(Cl)nn(C)c1=O
Response: 75

Prompt: State, in one line, measured Plant response rating, Nutsedge, Yellow of Cc1ccc2ccc(F)cc2c1-c1c(O)c(Cl)nn(C)c1=O
Response: 85

Reference source: patent US12435044B2
